target: soluble guanylate cyclase α1β1 (sGC) (Homo sapiens, UniProt Q02108+Q02153); construct: α1β1 catalytic domain (sGCcat); with sGC α1 subunit (GUCY1A1); test: SPR (Biacore T200), concentration series
Sequence (Q02153 408-619 limits assumed): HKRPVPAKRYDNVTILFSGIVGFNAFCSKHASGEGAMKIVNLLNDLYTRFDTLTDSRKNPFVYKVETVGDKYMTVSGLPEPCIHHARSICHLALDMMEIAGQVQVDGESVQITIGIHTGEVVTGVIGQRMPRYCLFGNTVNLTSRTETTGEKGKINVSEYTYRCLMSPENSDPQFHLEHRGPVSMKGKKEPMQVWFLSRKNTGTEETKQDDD
Sequence (Q02108 467-690): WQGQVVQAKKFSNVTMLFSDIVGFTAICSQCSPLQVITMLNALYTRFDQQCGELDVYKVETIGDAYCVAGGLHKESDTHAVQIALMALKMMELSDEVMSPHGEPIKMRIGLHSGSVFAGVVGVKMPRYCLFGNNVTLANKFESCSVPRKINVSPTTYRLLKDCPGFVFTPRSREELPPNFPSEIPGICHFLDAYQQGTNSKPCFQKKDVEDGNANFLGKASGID
reported property: Kd (µM)
The reply should contain only the number, in µM.

Query block: Quick check: Kd of `Nc1nc2c(ncn2[C@@H]2O[C@H](COP(=O)(O)OP(=O)(O)OP(=O)(O)O)[C@@H](O)[C@H]2O)c(=O)[nH]1` ?
Result block: 326

# credit: paper PMC3978654
